The reader will find reported GI50 values listed item by item below.
# System: MDA-N
# Assay procedure: NCI tumour cell line growth inhibition, 48 h
Active and inactive are the calls of the source. Rule as the data show it: active = GI50 up to about 1.1 µM and inactive = higher.

Cc1ccc(C(=O)/C=C2/Nc3ccccc3NC2=O)c(C)c1    17.5 µM (inactive)
CSC(Cc1ccc2c(c1)Sc1ccccc1O2)=[N+]1CCOCC1    54.5 µM (inactive)

Reported GI50, compound "CN1CCN(Cc2ccc(C(=S)Nc3ccccc3)s2)CC1" : ____ 35.6 µM (inactive)

Fill in the blank: the reported GI50 of "O=C1/C(=C/c2ccc(Br)s2)NC(=S)N1CN1CCCCC1" is ____. 33.9 µM (inactive)

# lookup: GI50 of "O=C(/C=C/c1ccc2c(c1)OCO2)c1ccc(O)cc1" 10.8 µM (inactive)

* * *

# Tested on: TK-10
# Assay procedure: NCI tumour cell line growth inhibition, 48 h
Calls of active or inactive are those of the source. No stated cut-off is given here; in the data, active = GI50 up to about 1.1 µM and inactive = higher.
Listed here are molecules together with their documented GI50.

CC(N)(/C=C/c1ccccc1)C(=O)O (centres undefined)    > 100 µM (inactive)
COc1cc(CNC(=O)CCCCCCCCCCSC#N)ccc1O    20.5 µM (inactive)
O=C(O)Cc1cccc2c1OC(c1ccccc1)C(Cl)(C(=O)c1ccccc1)C2=O (centres undefined)    21.8 µM (inactive)
Cc1ccc(C)c(COCCOCn2c(=O)[nH]c(=O)c3cc(Br)ccc32)c1    55.3 µM (inactive)
C=CCc1cc(C(Cc2ccccc2)NC(C)C)cc(OCc2ccccc2)c1OCc1ccccc1 (centres undefined)    17.1 µM (inactive)

Endpoint output: GI50 of "NNC(=O)CC(=O)Nc1ccc(S(=O)(=O)c2ccc(NC(=O)CC(=O)NN)cc2)cc1" . Value? > 100 µM (inactive)

// lookup GI50 for "CCOC(=O)/C=C/n1c2ccccc2c(=O)c2cc(OC)ccc21" 74.5 µM (inactive)

// returns reported GI50 for input CC(=O)O[C@H](C[C@@H](C)[C@H]1C(=O)[C@H](O)[C@@]2(C)C3CC[C@H]4C(C)(C)[C@@H](OC5OCC(O)C(O)C5O)CC[C@@]45C[C@@]35CC[C@]12C)[C@@H]1OC1(C)C (some centres undefined) 16.3 µM (inactive)

May I ask what GI50 has been recorded for "COc1ccc2c(c1)[n+]([O-])c(C(=O)CC(=O)C(=O)Nc1cccc(Cl)c1C)c(C)[n+]2[O-]" ? > 100 µM (inactive)

* * *

Listed here are compounds together with their documented GI50.
# System: SK-MEL-28
# Assay procedure: NCI tumour cell line growth inhibition, 48 h
The source made the active and inactive calls. No stated cut-off is given here; in the data, active = GI50 up to about 1.1 µM and inactive = higher.

Worked cases, answers included:
C=C(C)C1CC2=C(C(=O)OC)C=C(O2)C(C(=C)C)[C@@H]2OC(=O)/C(=C\C1O)[C@H]2N(C)C (some centres undefined)    13.1 µM (inactive)
COc1ccc(/C=C2/SC(c3ccc(Cl)cc3)N(NC(=O)CCCCCCCCC(=O)NN3C(=O)/C(=C\c4ccc(OC)c(OC)c4)SC3c3ccc(Cl)cc3)C2=O)cc1OC (centres undefined)    83 µM (inactive)
CC(C)CNC(=O)CCc1cccc2c1oc1c(CCN)cccc12    11.5 µM (inactive)
Cc1ccc(/C=C2\N=C(N3CCCC(CO)C3)NC2=O)cc1 (centres undefined)    > 100 µM (inactive)
CCCC(=O)OCC1OC(n2ccc(N)nc2=O)C(OC(=O)CCC)C1OC(=O)CCC (centres undefined)    15.1 µM (inactive)

Could you share which GI50 value was measured for CN(Cc1cnc2nc(N)nc(N)c2n1)c1ccc(C(=O)NC(CCC(=O)NC(CC(P(=O)(O)O)P(=O)(O)O)C(=O)O)C(=O)O)cc1 (centres undefined) ? > 100 µM (inactive)
